Tested on: Caco-2 cells
test-protocol: High throughput Caco-2 permeability
Type: in vitro ADME
assay-setup: basolateral to apical, 10 µmol/l, 2 h
Lab note: anything with Papp B→A at or over 20 ×10⁻⁶ cm/s counts as True; the rest go in False.

1) Clc1ccc2c(NCCCNCc3ccc4[nH]ccc4c3)ccnc2c1	True
2) FC(F)(F)c1cc(-c2ccc3c(NCCCNCc4ccc5[nH]ccc5c4)ccnc3c2)cc(C(F)(F)F)c1	False
3) FC(F)(F)c1ccc2c(NCCCNCc3ccc4c(c3)OCO4)ccnc2c1	True
4) C=CC(=O)N(CCCNc1ccnc2ccccc12)Cc1ccc2[nH]ccc2c1	False
5) CC(C)(C)c1ccc(-c2ccc3c(NCCCNCc4ccc5[nH]ccc5c4)ccnc3c2)cc1	False
6) FC(F)(F)c1ccc2c(NCCCNCc3ccco3)ccnc2c1	True
7) Brc1ccc2c(NCCCNCc3ccc4[nH]ccc4c3)ccnc2c1	False

====

target-under-test: MAGE-A11:PCF11 interaction (GST-MAGE-A11 MHD and FAM-PCF11_4) (Homo sapiens, UniProt P43364)
Construct: GST-MAGE-A11 MHD (human MAGE-A11 MHD amino acid 218-429); made in house; host or cells: E. coli BL21(DE3)
test-protocol: TR-FRET dose response test of compounds for disruption of MAGE-A11:PCF11 binding
assay-setup: Supplementary Data 3, 59 quinoline compounds; read-out: TR-FRET IC50
measurement-kind: IC50

1) Clc1ccc2c(NCCCNCc3ccc[nH]3)ccnc2c1 [SJ000575192-1, Clc1ccc2c(NCCCNCc3ccc[nH]3)ccnc2c1]	22.8 µM
2) CN(C)c1cccc(Oc2ccc3c(NCCCNCc4ccco4)ccnc3c2)c1	> 70 µM
3) CCCN(CCCNc1ccnc2cc(C(F)(F)F)ccc12)CC1CC1	> 70 µM
4) Clc1ccc(Oc2ccc3c(NCCCNCc4ccco4)ccnc3c2)cc1	> 70 µM

====

test-protocol: High throughput Caco-2 permeability
Assay type: in vitro ADME
assay-setup: human, Caco-2, pH 7.4; apical to basolateral, 10 µmol/l, 2 h
measurement-kind: Papp A→B at 2 h, 10 µmol/l (×10⁻⁶ cm/s)

1. FC(F)(F)c1ccc2c(NCCCNCc3ccc4[nH]ccc4c3)ccnc2c1	11.5
2. FC(F)(F)c1cc(-c2ccc3c(NCCCNCc4ccco4)ccnc3c2)cc(C(F)(F)F)c1	0.326
3. CC(C)(C)c1ccc(-c2ccc3c(NCCCNCc4ccco4)ccnc3c2)cc1	0.578
4. c1ccc2c(NCCCNCc3ccc4[nH]ccc4c3)ccnc2c1	8.17

====

target-under-test: MAGE-A11:PCF11 interaction (GST-MAGE-A11 and FAM-PCF11_4) (Homo sapiens, UniProt P43364)
Construct: GST-MAGE-A11 MHD (human MAGE-A11 MHD amino acid 218-429); made in house; host or cells: E. coli BL21(DE3)
test-protocol: TR-FRET primary / single point screen at 15 µM
Assay type: binding
assay-setup: single point TR-FRET screening of 797 quinoline compounds against MAGE-A11:PCF11
Lab note: anything with percent inhibition (TR-FRET) at or over -10 counts as y; the rest go in n.

1. CCCN(CCCNc1c2ccc(Cl)cc2nc2ccc(OC)cc12)Cc1ccoc1	n
2. Clc1ccc2c(NCCCCN(CCOCc3ccccc3)Cc3ccccc3)ccnc2c1	n
3. Cc1ccc(S(=O)(=O)c2cnc3ccccc3c2N2CCN(C)CC2)cc1	n
4. Cc1cc(NC(=O)CN[C@H]2CCN(Cc3ccccc3)C2)c2ccccc2n1	y
5. CCOc1ccc2ncc(S(=O)(=O)c3ccccc3)c(N3CCN(c4ccc(F)cc4)CC3)c2c1	n
6. Fc1cccc(CN2CCC(Nc3ccnc4cc(Cl)ccc34)CC2)c1	y
7. COc1ccccc1N1CCN(c2c(S(=O)(=O)c3ccccc3)cnc3ccc(C)cc23)CC1	n
8. CCCCN(CCCCNc1ccnc2cc(Cl)ccc12)Cc1ccccc1	y
9. Oc1c(F)cc(F)cc1CN(CCCCNc1ccnc2cc(Cl)ccc12)Cc1ccccc1	y

====

target-under-test: MAGE-A11:PCF11 interaction (GST-MAGE-A11 and FAM-PCF11_4) (Homo sapiens, UniProt P43364)
Construct: GST-MAGE-A11 MHD (human MAGE-A11 MHD amino acid 218-429); made in house; host or cells: E. coli BL21(DE3)
Sequence (P43364 218-429): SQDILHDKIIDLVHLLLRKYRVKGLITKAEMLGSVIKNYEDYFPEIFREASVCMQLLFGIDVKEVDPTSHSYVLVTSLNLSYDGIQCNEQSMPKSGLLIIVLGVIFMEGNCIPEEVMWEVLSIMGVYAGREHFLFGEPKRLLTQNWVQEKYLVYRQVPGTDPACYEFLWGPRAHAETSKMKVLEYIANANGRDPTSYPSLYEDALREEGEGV
test-protocol: TR-FRET primary / single point screen at 15 µM
Type: binding
assay-setup: single point TR-FRET screening of quinoline compounds against MAGE-A11:PCF11; 15 µM
Parameter: percent inhibition (TR-FRET). Scope: all listed entries.
measurement-kind: percent inhibition (TR-FRET)

1. CCCN(CCCNc1ccnc2cc(Cl)ccc12)CCOCc1ccccc1	-13.1805
2. Clc1ccc2c(NCCCNCc3ccc(Br)s3)ccnc2c1	15.3375
3. FC(F)(F)c1ccc2c(NCCCNCC3CCOC3)ccnc2c1 (stereo not drawn)	15.5598
4. CCCN(CCCNc1ccnc2cc(Cl)ccc12)Cc1ccncc1	9.295
5. CCCN(CCCNc1ccnc2cc(C(F)(F)F)ccc12)Cc1cc(OC(F)(F)F)ccc1OC	5.6
6. CCCN(CCCNc1ccnc2cc(C(F)(F)F)ccc12)Cc1ccccc1C(F)(F)F	4.988
7. CCCN(CCCNc1c2ccc(Cl)cc2nc2ccc(OC)cc12)Cc1ccc(Cl)c([N+](=O)[O-])c1	-71.0252
8. CCCN(CCCNc1ccnc2cc(C(F)(F)F)ccc12)Cc1cc(C)ccc1C	21.738
9. CCCN(CCCNc1ccnc2cc(C(F)(F)F)ccc12)Cc1ccc(Cl)cc1Cl	3.83

====

target-under-test: MAGE-A11:PCF11 interaction (GST-MAGE-A11 and FAM-PCF11_4) (Homo sapiens, UniProt P43364)
Construct: GST-MAGE-A11 MHD (human MAGE-A11 MHD amino acid 218-429); made in house; host or cells: E. coli BL21(DE3)
test-protocol: TR-FRET primary / single point screen at 15 µM
Assay type: binding
assay-setup: single point TR-FRET screening of 797 quinoline compounds against MAGE-A11:PCF11
Parameter: percent inhibition (TR-FRET). Scope: all listed entries.
measurement-kind: percent inhibition (TR-FRET)

1. Clc1ccc2c(NCCCCN(Cc3ccccc3)Cc3csc4ccccc34)ccnc2c1	33.9765
2. CCCN(CCCCNc1ccnc2cc(Cl)ccc12)Cc1ccccc1	7.684
3. CCCN(CCCNc1c2ccc(Cl)cc2nc2ccc(OC)cc12)Cc1ccc2c(c1)OCO2	-193.541
4. COc1ccc(S(=O)(=O)c2cnc3cc(OC)c(OC)cc3c2N2CCN(C)CC2)cc1	0.8227

====

target-under-test: MAGE-A11:PCF11 interaction (GST-MAGE-A11 MHD and FAM-PCF11_4) (Homo sapiens)
Construct: GST-MAGE-A11 MHD (human MAGE-A11 MHD amino acid 218-429); made in house; host or cells: E. coli BL21(DE3)
test-protocol: TR-FRET dose response test of compounds for disruption of MAGE-A11:PCF11 binding
assay-setup: Supplementary Data 3, 59 quinoline compounds; read-out: TR-FRET IC50
pIC50: −log10 of the molar value.
measurement-kind: pIC50

1. Clc1ccc2c(NCCCNCc3csc4ccccc34)ccnc2c1	< 4.15
2. Cc1cc(C)cc(Cc2ccc3c(NCCCNCc4ccco4)ccnc3c2)c1	< 4.15
3. CCCN(CCCNc1ccnc2cc(Cl)ccc12)Cc1ccc(-c2ccccc2)cc1	< 4.15
4. CCCCCN(CCC)CCCNc1ccnc2cc(C(F)(F)F)ccc12	< 4.15
5. Cc1ccc(F)cc1CN(CCCCNc1ccnc2cc(Cl)ccc12)Cc1ccccc1	< 4.15
6. CCCN(CCCNc1ccnc2cc(C(F)(F)F)ccc12)Cc1ccc(CC)cc1	< 4.15
7. CCCCCCN(CCC)CCCNc1ccnc2cc(C(F)(F)F)ccc12	< 4.15
8. CC(C)(C)c1ccc(Oc2ccc3c(NCCCNCc4ccco4)ccnc3c2)cc1	4.49
9. COc1ccc(Oc2ccc3c(NCCCNCc4ccco4)ccnc3c2)cc1	< 4.15
10. Clc1ccc2c(NCCCCN(Cc3ccccc3)CC3CCCCC3)ccnc2c1	< 4.15
11. Clc1ccc2c(NCCCCN(Cc3ccccc3)Cc3ccc4[nH]ccc4c3)ccnc2c1	4.63
12. Fc1ccc(CN(CCCCNc2ccnc3cc(Cl)ccc23)Cc2ccccc2)cc1	< 4.15
13. Clc1ccc2c(NCCCNCc3cc4ccccc4s3)ccnc2c1	< 4.15
14. Clc1ccc(CN(CCCCNc2ccnc3cc(Cl)ccc23)Cc2ccccc2)c(Cl)c1	< 4.15
15. CCCN(CCCNc1ccnc2cc(Cl)ccc12)Cc1ccc2[nH]ccc2c1	5.55
16. FC(F)(F)c1ccc2c(NCCCNCc3cc4ccccc4s3)ccnc2c1	< 4.15
